Origin of values: ChEMBL document CHEMBL1148711

target: Cytochrome P450 2D6 (Homo sapiens, UniProt P10635)
Sequence (P10635 whole entry): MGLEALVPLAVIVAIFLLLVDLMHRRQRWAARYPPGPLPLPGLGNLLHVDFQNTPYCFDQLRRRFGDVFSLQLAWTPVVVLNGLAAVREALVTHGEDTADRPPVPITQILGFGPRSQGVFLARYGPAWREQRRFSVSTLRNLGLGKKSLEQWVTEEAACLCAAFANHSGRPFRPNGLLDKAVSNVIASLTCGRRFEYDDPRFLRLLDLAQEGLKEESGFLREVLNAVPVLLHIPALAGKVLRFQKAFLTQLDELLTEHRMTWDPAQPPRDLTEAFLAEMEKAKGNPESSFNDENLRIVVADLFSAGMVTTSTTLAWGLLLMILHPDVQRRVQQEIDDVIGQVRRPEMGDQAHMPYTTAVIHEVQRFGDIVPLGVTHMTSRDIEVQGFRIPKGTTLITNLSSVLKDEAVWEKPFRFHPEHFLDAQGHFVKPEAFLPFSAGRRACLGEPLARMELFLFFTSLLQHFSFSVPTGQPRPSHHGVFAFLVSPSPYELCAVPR
pIC50: −log10 of the molar value.

ITEM_SMILES	pIC50
CCCCCOc1ccc(C(=O)c2cccc3ccccc23)c2ccccc12	< 3.70

---

target: Cannabinoid receptor 2 (Homo sapiens, UniProt P34972); assay: Displacement of [3H]CP-55940 human CB2 receptor expressed in CHOK1 cells
Sequence (P34972 whole entry): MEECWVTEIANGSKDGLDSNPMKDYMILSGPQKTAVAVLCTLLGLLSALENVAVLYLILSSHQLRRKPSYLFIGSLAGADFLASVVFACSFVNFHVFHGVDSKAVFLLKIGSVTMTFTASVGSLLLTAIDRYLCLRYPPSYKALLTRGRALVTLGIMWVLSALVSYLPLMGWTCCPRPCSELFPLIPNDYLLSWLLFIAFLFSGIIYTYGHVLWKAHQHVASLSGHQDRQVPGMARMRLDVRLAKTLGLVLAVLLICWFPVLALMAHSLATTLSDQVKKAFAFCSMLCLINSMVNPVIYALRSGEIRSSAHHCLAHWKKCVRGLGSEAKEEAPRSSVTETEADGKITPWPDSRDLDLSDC
EXPERIMENTAL_ENDPOINT: log10 of IC50 (log10 of the value in µM)

ITEM_SMILES	EXPERIMENTAL_SYSTEM	log10 of IC50
CCCCCCOc1ccc(C(=O)c2cccc3ccccc23)c2ccccc12	Cannabinoid receptor 2 (Homo sapiens, UniProt P34972)	-0.18
CCCCCOc1ccc(C(=O)c2cccc3ccccc23)c2ccccc12	Cannabinoid receptor 2 (Homo sapiens, UniProt P34972)	-1.01
CCCCCNc1ccc(C(=O)c2cccc3ccccc23)c2ccccc12	Cannabinoid receptor 2 (Homo sapiens, UniProt P34972)	-0.92
CCCCOc1ccc(C(=O)c2cccc3ccccc23)c2ccccc12	Cannabinoid receptor 2 (Homo sapiens, UniProt P34972)	-1.07
CCCOc1ccc(C(=O)c2cccc3ccccc23)c2ccccc12	Cannabinoid receptor 2 (Homo sapiens, UniProt P34972)	-1.05
O=C(c1cccc2ccccc12)c1ccc(OCCc2ccccc2)c2ccccc12	Cannabinoid receptor 2 (Homo sapiens, UniProt P34972)	0.30

---

test: Cmax in Wistar rat at 3 mg/kg, po after 1 hr; type: ADME, organism-based; design: dose 3 mg/kg, route oral; conditions: in vivo

ITEM_SMILES	Cmax [nM]
CCCCCOc1ccc(C(=O)c2cccc3ccccc23)c2ccccc12	1130

---

molecular target: Cytochrome P450 2E1 (Homo sapiens, UniProt P05181)
Sequence (P05181 whole entry): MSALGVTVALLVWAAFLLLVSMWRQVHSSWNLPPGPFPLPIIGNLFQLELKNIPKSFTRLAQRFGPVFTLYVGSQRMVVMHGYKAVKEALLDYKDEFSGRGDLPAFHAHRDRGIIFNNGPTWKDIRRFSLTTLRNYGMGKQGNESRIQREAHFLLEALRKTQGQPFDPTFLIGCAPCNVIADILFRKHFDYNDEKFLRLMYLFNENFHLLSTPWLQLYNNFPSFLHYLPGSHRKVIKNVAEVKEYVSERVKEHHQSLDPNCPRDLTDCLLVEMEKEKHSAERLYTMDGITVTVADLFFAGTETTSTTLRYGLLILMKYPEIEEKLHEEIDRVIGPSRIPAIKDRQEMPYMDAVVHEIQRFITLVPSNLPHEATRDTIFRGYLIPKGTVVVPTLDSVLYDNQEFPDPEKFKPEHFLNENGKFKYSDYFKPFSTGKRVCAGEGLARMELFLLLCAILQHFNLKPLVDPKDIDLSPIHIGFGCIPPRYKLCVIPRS

ITEM_SMILES	EXPERIMENTAL_SYSTEM	IC50
CCCCCOc1ccc(C(=O)c2cccc3ccccc23)c2ccccc12	Cytochrome P450 2E1 (Homo sapiens, UniProt P05181)	> 200 µM

---

assay: AUC (0 to infinity) in Wistar rat at 1 mg/kg, iv; format: ADME, organism-based; parameters: time infinity, dose 1 mg/kg, route intravenous; conditions: plasma
EXPERIMENTAL_ENDPOINT: AUC(0-inf)

ITEM_SMILES	OBS_VALUE
CCCCCOc1ccc(C(=O)c2cccc3ccccc23)c2ccccc12	5.72 µM·h

---

molecular target: Cannabinoid receptor 1 (Homo sapiens); experiment: Displacement of [3H]CP-55940 from human CB1 receptor expressed in HEK293 cells
Sequence (P21554 whole entry): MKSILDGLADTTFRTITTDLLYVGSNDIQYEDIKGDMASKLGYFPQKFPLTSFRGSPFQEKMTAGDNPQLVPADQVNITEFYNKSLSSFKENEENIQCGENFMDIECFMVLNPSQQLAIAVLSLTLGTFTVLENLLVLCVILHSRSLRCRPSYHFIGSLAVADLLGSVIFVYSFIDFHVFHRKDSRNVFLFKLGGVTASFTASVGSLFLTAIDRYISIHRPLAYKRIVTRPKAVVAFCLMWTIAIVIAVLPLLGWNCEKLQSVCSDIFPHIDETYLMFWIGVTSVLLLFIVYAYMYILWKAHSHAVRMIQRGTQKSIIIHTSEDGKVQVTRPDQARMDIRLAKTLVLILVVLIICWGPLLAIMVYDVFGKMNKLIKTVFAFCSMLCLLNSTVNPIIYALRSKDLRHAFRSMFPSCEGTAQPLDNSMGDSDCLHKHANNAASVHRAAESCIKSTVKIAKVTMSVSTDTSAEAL
pIC50: −log10 of the molar value.
The following compounds are shown together with reported pIC50 values.
EXPERIMENTAL_ENDPOINT: pIC50

ITEM_SMILES	OBS_VALUE
CCCOc1ccc(C(=O)c2cccc3ccccc23)c2ccccc12	6.52
CCCCOc1ccc(C(=O)c2cccc3ccccc23)c2ccccc12	7.32
O=C(c1cccc2ccccc12)c1ccc(OCCc2ccccc2)c2ccccc12	6.03
CCCCCNc1ccc(C(=O)c2cccc3ccccc23)c2ccccc12	7.60
CCCCCCOc1ccc(C(=O)c2cccc3ccccc23)c2ccccc12	6.80

---

molecular target: Cannabinoid receptor 1 (Rattus norvegicus)
Sequence (P20272 whole entry): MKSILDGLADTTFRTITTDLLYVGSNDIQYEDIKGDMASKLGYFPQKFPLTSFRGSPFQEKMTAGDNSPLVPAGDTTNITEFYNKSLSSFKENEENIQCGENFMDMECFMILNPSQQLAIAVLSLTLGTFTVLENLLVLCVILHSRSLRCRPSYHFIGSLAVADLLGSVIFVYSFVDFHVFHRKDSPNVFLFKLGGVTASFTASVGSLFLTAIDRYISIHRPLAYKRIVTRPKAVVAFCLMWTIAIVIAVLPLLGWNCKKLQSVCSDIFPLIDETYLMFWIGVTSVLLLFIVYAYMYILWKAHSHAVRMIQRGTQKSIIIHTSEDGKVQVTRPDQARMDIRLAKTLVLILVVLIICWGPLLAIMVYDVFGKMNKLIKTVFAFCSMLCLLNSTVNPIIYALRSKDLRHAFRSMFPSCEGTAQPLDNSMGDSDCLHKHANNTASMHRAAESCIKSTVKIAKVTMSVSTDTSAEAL
pIC50: −log10 of the molar value.

ITEM_SMILES	EXPERIMENTAL_SYSTEM	pIC50
CCCCCOc1ccc(C(=O)c2cccc3ccccc23)c2ccccc12	Cannabinoid receptor 1 (Rattus norvegicus)	7.66

---

assay: Volume of distribution at steady state in Wistar rat at 1 mg/kg, iv; assay type: ADME, organism-based; design: dose 1 mg/kg, route intravenous; settings: in vivo, read-out: Vdss
EXPERIMENTAL_ENDPOINT: Vd

ITEM_SMILES	OBS_VALUE
CCCCCOc1ccc(C(=O)c2cccc3ccccc23)c2ccccc12	9.6 L/kg

---

assay: Tmax in Wistar rat at 3.4 mg/kg, po; type: ADME, organism-based; design: dose 3.4 mg/kg, route oral; conditions: in vivo
EXPERIMENTAL_ENDPOINT: Tmax

ITEM_SMILES	EXPERIMENTAL_ENDPOINT	OBS_VALUE
CCCCCOc1ccc(C(=O)c2cccc3ccccc23)c2ccccc12	Tmax	1 h

---

test: Cmax in Wistar rat at 3.4 mg/kg, po; type: ADME, organism-based; design: dose 3.4 mg/kg, route oral; settings: in vivo

ITEM_SMILES	Cmax, nM
CCCCCOc1ccc(C(=O)c2cccc3ccccc23)c2ccccc12	1600

---

experiment: Half life in Wistar rat at 1 mg/kg, iv; type: ADME, organism-based; design: dose 1 mg/kg, route intravenous; details: in vivo, read-out: beta t1/2 (converted)

ITEM_SMILES	half-life, h
CCCCCOc1ccc(C(=O)c2cccc3ccccc23)c2ccccc12	64.6

---

molecular target: Cytochrome P450 3A4 (Homo sapiens, UniProt P08684)
Sequence (P08684 whole entry): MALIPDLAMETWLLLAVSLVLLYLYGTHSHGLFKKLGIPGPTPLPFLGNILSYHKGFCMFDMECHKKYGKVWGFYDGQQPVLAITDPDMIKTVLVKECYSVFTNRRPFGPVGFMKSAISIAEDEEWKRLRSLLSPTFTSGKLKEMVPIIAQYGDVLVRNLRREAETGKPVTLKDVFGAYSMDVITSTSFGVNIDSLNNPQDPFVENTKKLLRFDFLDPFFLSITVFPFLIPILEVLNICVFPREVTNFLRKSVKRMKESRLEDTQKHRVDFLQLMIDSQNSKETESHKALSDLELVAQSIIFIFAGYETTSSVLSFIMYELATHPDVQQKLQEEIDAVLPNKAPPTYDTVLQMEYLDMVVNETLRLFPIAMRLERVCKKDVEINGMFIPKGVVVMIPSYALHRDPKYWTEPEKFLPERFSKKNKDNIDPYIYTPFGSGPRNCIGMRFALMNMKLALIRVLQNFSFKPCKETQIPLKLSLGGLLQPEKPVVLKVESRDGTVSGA

ITEM_SMILES	IC50
CCCCCOc1ccc(C(=O)c2cccc3ccccc23)c2ccccc12	> 200 µM

---

experiment: AUC (0 to infinity) in Wistar rat at 3.4 mg/kg, po; type: ADME, organism-based; set-up: time infinity, dose 3.4 mg/kg, route oral; settings: plasma

ITEM_SMILES	SCALE_UNIT	AUC(0-inf)
CCCCCOc1ccc(C(=O)c2cccc3ccccc23)c2ccccc12	µM·h	8.39
